Assay: Single oral dose pharmacokinetic (PK) study in dogs, fasted and fed
Assay type: in vivo
Settings: both sexes, dog, in vivo, po, 15 mg/kg, 15 mg/kg oral suspension, fed, day 9, mean, read-out: AUClast, Day 9 (Fed)

| compound | AUC(0-t) |
| --- | --- |
| C=CC(=O)Nc1cc(C)ccc1Nc1nc(Nc2cc(OC)ncc2C)ncc1C(F)(F)F.Cl [Compound 4, Form A] | 3350 ng·h/mL |
| C=CC(=O)Nc1cc(C)ccc1Nc1nc(Nc2cc(OC)ncc2C)ncc1C(F)(F)F.O=P(O)(O)O [Compound 2, Form A] | 3880 ng·h/mL |
| Br.C=CC(=O)Nc1cc(C)ccc1Nc1nc(Nc2cc(OC)ncc2C)ncc1C(F)(F)F [Compound 5, Form A] | 5030 ng·h/mL |

###

Assay: Solubility in water at ambient temperature
Type: physicochemical
Conditions: water, ambient temperature, shaken 24 hours; free base-equivalent value, HPLC/UV

| compound | Conc. (μg/mL) at 24 hours [µg/mL] |
| --- | --- |
| C=CC(=O)Nc1cc(C)ccc1Nc1nc(Nc2cc(OC)ncc2C)ncc1C(F)(F)F.O=P(O)(O)O [Compound 2] | 19.40 |
| C=CC(=O)Nc1cc(C)ccc1Nc1nc(Nc2cc(OC)ncc2C)ncc1C(F)(F)F.Cc1ccc(S(=O)(=O)O)cc1 [Compound 8] | 218.34 |
| C=CC(=O)Nc1cc(C)ccc1Nc1nc(Nc2cc(OC)ncc2C)ncc1C(F)(F)F [Compound 7] | 1170 |
| C=CC(=O)Nc1cc(C)ccc1Nc1nc(Nc2cc(OC)ncc2C)ncc1C(F)(F)F [Compound 3] | 113 |
| Br.C=CC(=O)Nc1cc(C)ccc1Nc1nc(Nc2cc(OC)ncc2C)ncc1C(F)(F)F [Compound 5] | 190.63 |
| C=CC(=O)Nc1cc(C)ccc1Nc1nc(Nc2cc(OC)ncc2C)ncc1C(F)(F)F.O=S(=O)(O)c1ccccc1 [Compound 9] | 173.63 |
| C=CC(=O)Nc1cc(C)ccc1Nc1nc(Nc2cc(OC)ncc2C)ncc1C(F)(F)F.Cl [Compound 4] | 162.33 |
| C=CC(=O)Nc1cc(C)ccc1Nc1nc(Nc2cc(OC)ncc2C)ncc1C(F)(F)F [Compound 6] | 560.02 |
| C=CC(=O)Nc1cc(C)ccc1Nc1nc(Nc2cc(OC)ncc2C)ncc1C(F)(F)F [Compound 1] | 0.07 |

###

Experiment: Solubility in water at ambient temperature
Type: physicochemical
Details: pH of the solubility sample in water at 48 hrs

| molecule | pH at 48 hrs |
| --- | --- |
| C=CC(=O)Nc1cc(C)ccc1Nc1nc(Nc2cc(OC)ncc2C)ncc1C(F)(F)F [Compound 6] | 1.98 |
| C=CC(=O)Nc1cc(C)ccc1Nc1nc(Nc2cc(OC)ncc2C)ncc1C(F)(F)F [Compound 1] | 6.33 |
| C=CC(=O)Nc1cc(C)ccc1Nc1nc(Nc2cc(OC)ncc2C)ncc1C(F)(F)F.Cc1ccc(S(=O)(=O)O)cc1 | 2.00 |
| C=CC(=O)Nc1cc(C)ccc1Nc1nc(Nc2cc(OC)ncc2C)ncc1C(F)(F)F.O=P(O)(O)O | 2.48 |
| Br.C=CC(=O)Nc1cc(C)ccc1Nc1nc(Nc2cc(OC)ncc2C)ncc1C(F)(F)F | 2.27 |
| C=CC(=O)Nc1cc(C)ccc1Nc1nc(Nc2cc(OC)ncc2C)ncc1C(F)(F)F.Cl | 2.29 |
| C=CC(=O)Nc1cc(C)ccc1Nc1nc(Nc2cc(OC)ncc2C)ncc1C(F)(F)F.O=S(=O)(O)c1ccccc1 | 2.10 |
